Let's look at some compounds and their measured Pharmacophore torsion angle a(H4, O1, O2, N2).
targetOrSystem: MASP-2 CCP2-SP (Homo sapiens (Human))
Sequence (O00187 445-686): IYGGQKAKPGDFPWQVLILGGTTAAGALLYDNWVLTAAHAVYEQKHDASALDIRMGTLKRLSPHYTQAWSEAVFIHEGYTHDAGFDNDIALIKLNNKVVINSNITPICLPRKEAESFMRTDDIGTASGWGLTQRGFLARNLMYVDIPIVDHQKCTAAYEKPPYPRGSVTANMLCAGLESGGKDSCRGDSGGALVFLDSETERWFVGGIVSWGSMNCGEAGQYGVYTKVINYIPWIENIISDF
Sequence (O00187 364-432 partner): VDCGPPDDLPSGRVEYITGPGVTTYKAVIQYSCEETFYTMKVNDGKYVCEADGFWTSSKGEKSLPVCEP
protocolSummary: MASP-2 co-crystallization, X-ray crystallography and structure analysis (H-bonds, van der Waals contacts)
setupConditions: Table A7-1; between pharmacophore elements of the bound compound
I'd appreciate a reply containing only the number, no unit.

Some compounds with recorded Pharmacophore torsion angle a(H4, O1, O2, N2):
In [3]: df
Out[3]:
                                   compound  reportedvalue
0  C[C@H](NC(=O)[C@H]1C[C@@H](c2ccccc2)CCN1)C(=O)NCc1ccc(C(=N)N)cc1 (stereo in doubt)         129.83
1  C[C@H](NC(=O)[C@H]1C[C@@H](c2ccccc2)CN1)C(=O)NCc1ccc2c(N)nccc2c1.Cl.Cl [1089_B]        −178.39
2  C[C@H](NC(=O)[C@H]1Cc2c([nH]c3ccccc23)CN1)C(=O)NCc1ccc(C(=N)N)cc1.Cl.Cl [1097_1]         121.05

**Query** Requested field: Pharmacophore torsion angle a(H4, O1, O2, N2). Item: C[C@H](NC(=O)C1C[C@@H](c2ccccc2)CCN1)C(=O)NCc1ccc(C(=N)N)cc1 (stereo in doubt)
**Result** 155.02

**Query** Also `C[C@H](NC(=O)[C@@H](CCc1ccccc1)NCc1ccc(N2CCOCC2)cc1)C(=O)NCc1ccc(C(=N)N)cc1` ?
**Result** 125.02

**Query** Same read-out for Cc1nc(N)ccc1CNC(=O)[C@H](C)NC(=O)[C@H]1C[C@H](Cc2ccccc2Br)CN1.O=C(O)C(F)(F)F.O=C(O)C(F)(F)F [1372_B] ?
**Result** 139.62

**Query** Same lookup for CC(=O)Nc1ccc(CCNC(CCc2ccccc2)C(=O)NC(C)C(=O)NCc2ccc(C(=N)N)cc2)cc1.Cl.Cl (centres unmarked) [1345_2] , please.
**Result** 128.64

**Query** How about this compound: Cc1nc(N)ccc1CNC(=O)C(C)NC(=O)C1CC(c2cccc3ccccc23)CCN1.Cl.Cl (centres unmarked) [1297_3]
**Result** 141.16

----------
targetOrSystem: UniProt:O00187
protocolSummary: MASP-2 co-crystallization, X-ray crystallography and structure analysis (H-bonds, van der Waals contacts)
setupConditions: Table A6-2 pharmacophore angle
Description: This example illustrates the preparation of recombinant MASP-2 protein, based on UniProt O00187, human mannan-binding lectin serine protease 2. Expression constructs for human MASP-2 CCP2-SP and CCP2-SP-6HIS were generated for recombinant expression in E. coli cells. […]
Counter-ions that a name gives are not always drawn.
Items are presented alongside their recorded a(O1, O2, N2).
Output spec: single numeric token, no unit.

Some compounds with known a(O1, O2, N2) results, for comparison:
                                   compound  reportedvalue
0  Cc1nc(N)ccc1CNC(=O)[C@H](C)NC(=O)[C@H]1C[C@@H](c2ccccc2)CCN1 [compound 1253, Dihydrochloride]         140.99
1  CC(=O)Nc1ccc(CCNC(CCc2ccccc2)C(=O)NC(C)C(=O)NCc2ccc(C(=N)N)cc2)cc1.Cl.Cl (stereo not shown) [1345_2]         142.63
2  Cc1nc(N)ccc1CNC(=O)[C@H](C)NC(=O)[C@H]1C[C@H](Cc2cccc(-c3ccccc3)c2)CN1         140.17
3  Cc1nc(N)ccc1CNC(=O)[C@H](C)NC(=O)[C@H]1C[C@H](Cc2ccccc2Br)CN1.O=C(O)C(F)(F)F.O=C(O)C(F)(F)F [1372_A]         140.15
4  C[C@H](NC(=O)[C@@H](CCc1ccccc1)NCc1ccc(N2CCOCC2)cc1)C(=O)NCc1ccc(C(=N)N)cc1          62.73
5  N=C(N)c1ccc(CNC(=O)[C@@H]2CCN2C(=O)[C@H]2Cc3ccccc3CN2)cc1         137.69

Pending compound:
**Query** What value of a(O1, O2, N2) has been reported for the following compound? C[C@H](NC(=O)[C@H]1Cc2c([nH]c3ccccc23)CN1)C(=O)NCc1ccc(C(=N)N)cc1.Cl.Cl [1097_1]
**Result** 134.93

Numbers sourced from patent US12195427B2.
